TARGET ENTITY: human CCR3 (Homo sapiens)
Sequence (P51677 1-355): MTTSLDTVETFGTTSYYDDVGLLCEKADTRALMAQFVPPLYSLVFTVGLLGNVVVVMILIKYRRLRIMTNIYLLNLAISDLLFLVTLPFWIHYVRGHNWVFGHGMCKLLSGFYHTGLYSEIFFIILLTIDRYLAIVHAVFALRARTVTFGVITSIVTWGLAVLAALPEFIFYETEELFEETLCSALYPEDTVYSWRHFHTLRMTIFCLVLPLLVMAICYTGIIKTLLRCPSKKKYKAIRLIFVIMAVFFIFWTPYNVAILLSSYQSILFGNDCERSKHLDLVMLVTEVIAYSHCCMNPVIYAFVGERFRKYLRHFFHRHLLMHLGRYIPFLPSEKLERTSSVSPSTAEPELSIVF
PROPERTY NAME: pKi
pKi field: float, defined as -log10 of concentration (mol/L).

Return reported pKi; argument: COc1ccc(C(=O)N2CCC(N3CC[C@@H](Cc4ccc(Cl)c(Cl)c4)[C@@H](CO)C3)CC2)c2cccnc12 (relative stereo) [Example 2-EE]
8.55
